B1: Azoarcus group I ribozyme (parent)
chain: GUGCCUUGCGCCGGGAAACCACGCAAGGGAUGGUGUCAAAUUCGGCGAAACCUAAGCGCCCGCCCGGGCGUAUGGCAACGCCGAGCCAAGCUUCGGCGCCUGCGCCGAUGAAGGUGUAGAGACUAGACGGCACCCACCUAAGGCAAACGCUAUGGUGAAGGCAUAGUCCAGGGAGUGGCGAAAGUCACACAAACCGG

variants of: B1; test: reverse-splicing fitness (ratio to wild type); higher = more active; in vitro selection; Mg2+ level not given
Values of reverse-splicing fitness greater than or equal to 0.01 map to true (1); values below map to false (0).

mutations="C82G A111G A145G C150U C169U" class_name="true (1)"
mutations="C82G A111C C150U C169G U176A" class_name="true (1)"
mutations="A111U A120U A145G C169G U176A" class_name="false (0)"
mutations="A111U A120U C150G C169U" class_name="false (0)"
mutations="C82U A111G A145U C150U C169U U176G" class_name="false (0)"
mutations="C82U A111G A120C A145U C169A" class_name="false (0)"
mutations="C82G A111C C150A U176G" class_name="true (1)"
mutations="C82G A111G A120G C150A C169G U176A" class_name="true (1)"
mutations="C82A A111U A120G A145U C150G C169G" class_name="false (0)"
mutations="A111G A120C A145G C150U U176C" class_name="true (1)"
mutations="A111U A120C A145U C150A C169G U176C" class_name="true (1)"
mutations="C82A C150A C169A U176A" class_name="true (1)"
mutations="C82U A111G A120G C150A U176C" class_name="true (1)"
mutations="C82A A111U A120U A145C C169U U176A" class_name="false (0)"
mutations="C82A A120G A145C C150U U176A" class_name="true (1)"
mutations="C82G A111C A120C A145C C150U C169A" class_name="false (0)"
mutations="C82U A111G A120C A145G C150U C169U" class_name="true (1)"
mutations="A111G A120U A145U C169A" class_name="false (0)"
mutations="A111U A120U A145G C150G C169A U176A" class_name="false (0)"
mutations="C82G A111U A120G A145C C150G C169A U176A" class_name="false (0)"
mutations="C82G A111G A120U C169A U176G" class_name="false (0)"
